- Tested on: KRAS PDC multicell spheroid viability
- ASSAY TEXT: Anticancer human tumor 521955-158-R6-J3-PDC patient-derived pancreatic carcinoma cell line growth inhibition [KRAS2]
- MEASUREMENT CONDITIONS: second compound 1 µM; first compound 0.0316 µM; active compounds read low
Listed here are compounds together with their documented viability, T/C.

{"COMPOUND": "COc1cc(Nc2ncc3c(n2)-c2ccc(Cl)cc2C(c2c(F)cccc2OC)=NC3)ccc1C(=O)O + COc1cc2nc(C)nc(NC(C)c3cc(N)cc(C(F)(F)F)c3)c2cc1OC1CCOC1", "UNITS LABEL": "%", "viability, T/C": 80.7}
{"COMPOUND": "Cn1ncnc1[C@H]1c2n[nH]c(=O)c3cc(F)cc(c23)N[C@@H]1c1ccc(F)cc1 + C=CC(=O)N1CCN(c2nc(OCC3CCCN3C)nc3c2CCN(c2cccc4cccc(C)c24)C3)CC1CC#N", "UNITS LABEL": "%", "viability, T/C": 78.6}
{"COMPOUND": "COc1cc2nccc(Oc3ccc(NC(=O)C4(C(=O)Nc5ccc(F)cc5)CC4)cc3)c2cc1OC + COc1cc2nc(C)nc(NC(C)c3cc(N)cc(C(F)(F)F)c3)c2cc1OC1CCOC1", "UNITS LABEL": "%", "viability, T/C": 79.8}
{"COMPOUND": "CCN1CCN(Cc2ccc(Nc3ncc(F)c(-c4cc(F)c5nc(C)n(C(C)C)c5c4)n3)nc2)CC1 + C=CC(=O)N1CCN(c2nc(OCC3CCCN3C)nc3c2CCN(c2cccc4cccc(C)c24)C3)CC1CC#N", "UNITS LABEL": "%", "viability, T/C": 71.3}
{"COMPOUND": "COc1cc2nccc(Oc3ccc(NC(=O)C4(C(=O)Nc5ccc(F)cc5)CC4)cc3)c2cc1OC + CNCc1ccccc1-c1csc(C(C)Nc2nc(C)nc3cc(OC)c(OC)cc23)c1", "UNITS LABEL": "%", "viability, T/C": 80.1}
{"COMPOUND": "COC(=O)c1ccc2c(C(=Nc3ccc(N(C)C(=O)CN4CCN(C)CC4)cc3)c3ccccc3)c(O)[nH]c2c1 + COc1cc2nc(C)nc(NC(C)c3cc(N)cc(C(F)(F)F)c3)c2cc1OC1CCOC1", "UNITS LABEL": "%", "viability, T/C": 84}
{"COMPOUND": "O=C(c1cc(Cc2n[nH]c(=O)c3ccccc23)ccc1F)N1CCN(C(=O)C2CC2)CC1 + COc1cc2nc(C)nc(NC(C)c3cc(N)cc(C(F)(F)F)c3)c2cc1OC1CCOC1", "UNITS LABEL": "%", "viability, T/C": 90.9}

----------
As shown below, each of these compounds has a reported viability, T/C value.
- Tested on: KRAS PDC multicell spheroid viability
- ASSAY TEXT: Anticancer human tumor 521955-158-R6-J3-PDC cell line growth inhibition [KRAS2];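 further: drug exposure lasted seven days; 100% = DMSO vehicle wells and lower means fewer viable cells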
- MEASUREMENT CONDITIONS: second compound 0.1 µM; first compound 0.1 µM; active compounds read low
- Source text: Multicellular complex tumor spheroid response to RAS pathway inhibitors in combination with a targeted agents in patient-derived cell lines with oncogenic KRAS variants from multiple cancer types A high-throughput screen of multi-cell type tumor spheroids was designed to identify active combinations of targeted small molecules and KRAS pathway inhibitors. […] Compounds. […] If the clinical Cmax for an agent had not been determined, the highest concentration tested was 10 microM. […]

{"COMPOUND": "CC1(C)CCC(CN2CCN(c3ccc(C(=O)NS(=O)(=O)c4ccc(NCC5CCOCC5)c([N+](=O)[O-])c4)c(Oc4cnc5[nH]ccc5c4)c3)CC2)=C(c2ccc(Cl)cc2)C1 + CNCc1ccccc1-c1csc(C(C)Nc2nc(C)nc3cc(OC)c(OC)cc23)c1", "UNITS LABEL": "%", "viability, T/C": 98.1}
{"COMPOUND": "CC1COCCN1c1cc(-c2ccnn2C)c2ccnc(-c3ccn[nH]3)c2n1 (stereo not given) + C=CC(=O)N1CCN(c2nc(=O)n(-c3c(C)ccnc3C(C)C)c3nc(-c4c(O)cccc4F)c(F)cc23)C(C)C1", "UNITS LABEL": "%", "viability, T/C": 76.7}
{"COMPOUND": "COc1cc(Nc2ncc3c(n2)-c2ccc(Cl)cc2C(c2c(F)cccc2OC)=NC3)ccc1C(=O)O + C=CC(=O)N1CCN(c2nc(=O)n(-c3c(C)ccnc3C(C)C)c3nc(-c4c(O)cccc4F)c(F)cc23)C(C)C1", "UNITS LABEL": "%", "viability, T/C": 103}
{"COMPOUND": "CC1OCC2(CCN(c3cnc(Sc4ccnc(N)c4Cl)c(N)n3)CC2)C1N (stereo not given) + COc1cc2nc(C)nc(NC(C)c3cc(N)cc(C(F)(F)F)c3)c2cc1OC1CCOC1", "UNITS LABEL": "%", "viability, T/C": 82.6}
{"COMPOUND": "CC(C)n1nc(-c2ccc3oc(N)nc3c2)c2c(N)ncnc21 + C=CC(=O)N1CCN(c2nc(=O)n(-c3c(C)ccnc3C(C)C)c3nc(-c4c(O)cccc4F)c(F)cc23)C(C)C1", "UNITS LABEL": "%", "viability, T/C": 55.4}
